Each recorded value in this set is attributed to PubChem BioAssay AID1963841.

# Tested on: 439559-082-T-J2-PDC spheroid viability;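 note: spheroids exposed to compounds for seven days before readout; 100% = DMSO vehicle control viability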
# ASSAY TEXT: Anticancer human tumor 439559-082-T-J2-PDC patient-derived colon adenocarcinoma cell line growth inhibition [POLQ]
# MEASUREMENT PARAMETERS: second compound 0.1 µM; first compound 0.0316 µM; stronger effect = lower value; spheroids with HUVEC and MSC
# Protocol: Multicellular complex tumor spheroid response to Polymerase (POL) inhibitors (novobiocin, ART-558, RP6685) in combination with a variety of drugs and investigational agents in selected tumor cell lines The POL inhibitors (novobiocin, ART-558, and RP6685) were evaluated both individually and in combination with standard of care and investigational anticancer small molecules within a complex spheroid model of solid tumors. . […]
QUANTITY MEASURED: viability, T/C (%)
Provide the reading as a plain figure in %.

Worked set:
COMPOUND	viability, T/C / %
O=c1[nH]cc(F)c(=O)[nH]1 + COC1C(OC(N)=O)C(O)C(Oc2ccc3c(O)c(NC(=O)c4ccc(O)c(CC=C(C)C)c4)c(=O)oc3c2C)OC1(C)C	103
CCCS(=O)(=O)Nc1ccc(F)c(C(=O)c2c[nH]c3ncc(-c4ccc(Cl)cc4)cc23)c1F + Nc1ccc(C#CCN(C(=O)Cc2ncc(C(F)(F)F)cc2C(F)(F)F)c2ccc(F)cc2)nn1	79.8
CC(C)n1c(=O)n(C)c2cnc3cc(F)c(-c4ccc(OCCCN5CCCCC5)nc4)cc3c21 + COC1C(OC(N)=O)C(O)C(Oc2ccc3c(O)c(NC(=O)c4ccc(O)c(CC=C(C)C)c4)c(=O)oc3c2C)OC1(C)C	111

Suppose we examine the compound CCc1cc2c(N3CCc4c(cc(Cn5ccnc5)cc4-c4cn(C)nc4C(F)(F)F)C3=O)cc(C)nc2c(OC)n1 + COC1C(OC(N)=O)C(O)C(Oc2ccc3c(O)c(NC(=O)c4ccc(O)c(CC=C(C)C)c4)c(=O)oc3c2C)OC1(C)C ; what viability, T/C value has been reported?
102

Suppose we examine the compound O=C(Nc1ccc(O)c(NS(=O)(=O)c2ccc(F)cc2)c1)c1ccc(-c2ccccc2)cc1 + COC1C(OC(N)=O)C(O)C(Oc2ccc3c(O)c(NC(=O)c4ccc(O)c(CC=C(C)C)c4)c(=O)oc3c2C)OC1(C)C ; what viability, T/C value has been reported?
98.8
